Method description: in vitro
Entries and their measured viability at 4 days, 10 μM follow.
The figure you give is taken to be in %; do not add the unit.

- Chem smiles: "C=C(C)[C@@H]1CC[C@]2(C(=O)N3CCC[C@H]3c3ncc(-c4ccc(OCC)cc4)[nH]3)CC[C@]3(C)[C@H](CC[C@@H]4[C@@]5(C)CC[C@H](OC(=O)[C@H]6C[C@@H](C(=O)O)C6(C)C)C(C)(C)[C@@H]5CC[C@]43C)[C@@H]12"
  viability at 4 days, 10 μM (%): 100

Okay, next one:
input: Look up viability at 4 days, 10 μM for this compound: `C=C(C)[C@@H]1CC[C@]2(C(=O)N3CCC[C@H]3c3ncc(-c4ccc(C)c(F)c4)[nH]3)CC[C@]3(C)[C@H](CC[C@@H]4[C@@]5(C)CC[C@H](OC(=O)CC(C)(C)C(=O)O)C(C)(C)[C@@H]5CC[C@]43C)[C@@H]12`
output: 80
